# Papp per record follows
Experiment: SUPPLEMENTARY: PAMPA permeability assay
Assay type: physicochemical
Conditions: read-out: Permeability
A number alone suffices; assume nm/s.

[
  {
    "Molecule": "CN1CCN(C(=O)COc2ccccc2)[C@@H](c2nc(-c3ccc4c(c3)CC(=O)N4)no2)C1",
    "Readout Label": "Papp",
    "Display Unit": "nm/s",
    "Recorded Value": 33.8
  },
  {
    "Molecule": "COc1ccc(Cl)cc1S(=O)(=O)N1CCOc2ccc(C(=O)Nc3nc(CC(=O)O)cs3)cc21",
    "Readout Label": "Papp",
    "Display Unit": "nm/s",
    "Recorded Value": 16.2
  },
  {
    "Molecule": "COCCN(c1cc(C(=O)Nc2nc(CC(=O)O)cs2)cc2c1OCO2)S(=O)(=O)c1cc(Cl)ccc1OC",
    "Readout Label": "Papp",
    "Display Unit": "nm/s",
    "Recorded Value": 11.6
  },
  {
    "Molecule": "O=C(COc1ccccc1)N1CCCC[C@@H]1c1nc(-c2ccncc2)cs1",
    "Readout Label": "Papp",
    "Display Unit": "nm/s",
    "Recorded Value": 38.4
  },
  {
    "Molecule": "N#Cc1cccc(-c2n[nH]c([C@H]3CCCCN3C(=O)COc3ccccc3)n2)c1",
    "Readout Label": "Papp",
    "Display Unit": "nm/s",
    "Recorded Value": 29.6
  },
  {
    "Molecule": "COc1ccc(Cl)cc1S(=O)(=O)N1CCOc2ccc(C(=O)Nc3ccc(CCC(=O)O)cc3)cc21",
    "Readout Label": "Papp",
    "Display Unit": "nm/s",
    "Recorded Value": 33
  }
]

Please give the measured Papp for this molecule: COc1ccc(Cl)cc1S(=O)(=O)N1CC(C)c2ccc(C(=O)Nc3ccc(C(=O)O)cc3)cc21 (stereo unspecified)
24

Please give the measured Papp for this molecule: COc1ccc(Cl)cc1S(=O)(=O)N1CCc2ccc(C(=O)Nc3ccc(CC(=O)O)cc3)cc21
40.9

Please give the measured Papp for this molecule: O=C(COc1ccccc1)N1CCCC[C@@H]1c1noc(-c2ccc3[nH]c(=O)c(=O)[nH]c3c2)n1
4.7

###

Target: Carnitine O-palmitoyltransferase 1, liver isoform (Homo sapiens)
Sequence (P50416 whole entry, canonical isoform): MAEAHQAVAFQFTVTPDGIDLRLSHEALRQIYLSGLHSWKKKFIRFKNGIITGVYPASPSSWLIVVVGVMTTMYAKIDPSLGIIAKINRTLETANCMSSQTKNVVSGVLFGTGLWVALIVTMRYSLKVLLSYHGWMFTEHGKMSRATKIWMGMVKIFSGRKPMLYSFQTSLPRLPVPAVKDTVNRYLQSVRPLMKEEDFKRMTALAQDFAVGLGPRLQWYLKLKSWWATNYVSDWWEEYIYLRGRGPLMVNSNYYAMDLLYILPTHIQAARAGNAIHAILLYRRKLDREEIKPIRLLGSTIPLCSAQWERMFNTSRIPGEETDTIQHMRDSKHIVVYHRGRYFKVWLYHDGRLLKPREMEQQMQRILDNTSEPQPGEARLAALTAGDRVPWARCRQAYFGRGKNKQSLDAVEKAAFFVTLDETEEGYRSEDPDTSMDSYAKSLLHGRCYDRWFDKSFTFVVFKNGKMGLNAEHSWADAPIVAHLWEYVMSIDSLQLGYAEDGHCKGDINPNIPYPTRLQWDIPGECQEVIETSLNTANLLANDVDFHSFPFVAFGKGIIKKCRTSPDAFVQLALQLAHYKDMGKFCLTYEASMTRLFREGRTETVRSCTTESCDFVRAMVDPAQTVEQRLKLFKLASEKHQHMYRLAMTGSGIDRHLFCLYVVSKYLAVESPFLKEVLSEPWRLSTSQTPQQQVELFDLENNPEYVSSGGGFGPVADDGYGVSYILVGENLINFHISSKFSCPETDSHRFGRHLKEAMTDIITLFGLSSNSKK
Assay: SUPPLEMENTARY: Inhibition of Carnitine palmitoyltransferase 1, liver isoform
pIC50: −log10 of the molar value.
Classify by measured pIC50: rule met if it is equal to or exceeds 7, rule not met if it is smaller.

Observe how each entry below is paired with its result.
[
  {
    "Compound": "Cc1cc(C)cc(S(=O)(=O)c2nn(CC(=O)O)c3ccc(C(=O)Nc4ccccc4)cc23)c1",
    "Assigned Label": "rule met"
  },
  {
    "Compound": "O=C(COc1ccccc1)N1CCCCC1c1ncc(-c2cccc([N+](=O)[O-])c2)s1 (centres undefined)",
    "Assigned Label": "rule not met"
  },
  {
    "Compound": "COCCN(c1cc(C(=O)Nc2ncc(CC(=O)O)s2)cc2c1OCO2)S(=O)(=O)c1cc(Cl)ccc1OC",
    "Assigned Label": "rule not met"
  }
]

Reported pIC50 at or above 7? O=C(COc1ccccc1)N1CCCC[C@@H]1c1noc(-c2ccc3cnccc3n2)n1
rule not met

###

Target: Carnitine O-palmitoyltransferase 1, muscle isoform (Homo sapiens, UniProt Q92523)
Sequence (Q92523 whole entry): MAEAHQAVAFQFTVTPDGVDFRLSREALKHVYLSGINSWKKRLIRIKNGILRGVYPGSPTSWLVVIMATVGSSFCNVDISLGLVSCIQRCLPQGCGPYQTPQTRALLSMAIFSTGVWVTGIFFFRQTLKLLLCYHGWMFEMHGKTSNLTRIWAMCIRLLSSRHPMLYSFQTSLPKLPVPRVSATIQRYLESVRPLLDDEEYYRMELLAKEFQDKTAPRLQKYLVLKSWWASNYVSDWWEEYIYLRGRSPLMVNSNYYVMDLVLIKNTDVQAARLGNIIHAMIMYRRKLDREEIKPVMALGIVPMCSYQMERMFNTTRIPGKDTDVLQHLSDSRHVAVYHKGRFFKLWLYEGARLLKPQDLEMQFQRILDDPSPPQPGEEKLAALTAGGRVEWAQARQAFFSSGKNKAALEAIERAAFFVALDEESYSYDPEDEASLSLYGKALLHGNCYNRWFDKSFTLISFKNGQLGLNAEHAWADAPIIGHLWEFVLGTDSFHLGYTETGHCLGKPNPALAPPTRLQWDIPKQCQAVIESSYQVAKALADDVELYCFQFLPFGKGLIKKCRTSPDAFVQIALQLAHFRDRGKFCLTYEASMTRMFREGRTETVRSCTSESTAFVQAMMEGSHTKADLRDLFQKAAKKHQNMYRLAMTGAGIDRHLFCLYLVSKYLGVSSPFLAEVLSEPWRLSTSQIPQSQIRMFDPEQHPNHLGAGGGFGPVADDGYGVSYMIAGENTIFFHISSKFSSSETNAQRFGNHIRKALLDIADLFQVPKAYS
Test: SUPPLEMENTARY: Inhibition of Carnitine palmitoyltransferase 1, muscle isoform
# IC50 per record follows

Please give the measured IC50 for this molecule: O=C([C@H]1CCCCN1C(=O)COc1ccccc1)N1Cc2ccc(C3CCOC3)cc2C1 (some centres undefined)
> 100 µM

Please give the measured IC50 for this molecule: O=C1Cc2ccc(-c3noc([C@H]4CCCCN4C(=O)COc4ccccc4)n3)cc2N1
> 100 µM

Please give the measured IC50 for this molecule: O=C(COc1ccccc1)N1CCCC[C@@H]1c1noc(-c2ccc(-n3cncn3)cc2)n1
> 100 µM

Please give the measured IC50 for this molecule: COc1ccc(Cl)cc1S(=O)(=O)N1CCOc2c(C(F)F)cc(C(=O)Nc3ccc(C(=O)O)cc3)cc21
> 100 µM

Please give the measured IC50 for this molecule: O=C(O)c1ccc(NC(=O)c2ccc3c(c2)N(S(=O)(=O)c2cccc(Cl)c2)CCO3)cc1
> 100 µM

###

Experiment: SUPPLEMENTARY: PAMPA permeability assay
Type: physicochemical
Conditions: read-out: Permeability
# Papp per record follows
A number alone suffices; assume ×10⁻⁶ cm/s.

Study these solved cases before continuing.
[
  {
    "Compound": "NC(=O)c1cn2ccc(-c3noc([C@H]4CCCCN4C(=O)COc4ccccc4)n3)cc2n1",
    "Papp (×10⁻⁶ cm/s)": 5.55
  },
  {
    "Compound": "CC(=O)Nc1cccc(-n2nnc([C@H]3CCCCN3C(=O)COc3ccccc3)n2)c1",
    "Papp (×10⁻⁶ cm/s)": 3.5
  },
  {
    "Compound": "CC(=O)Nc1cc(F)cc(-c2n[nH]c([C@H]3CCCCN3C(=O)COc3ccccc3)n2)c1",
    "Papp (×10⁻⁶ cm/s)": 1.69
  },
  {
    "Compound": "CC(=O)Nc1ccc(-n2nnc([C@H]3CCCCN3C(=O)COc3ccccc3)n2)cc1",
    "Papp (×10⁻⁶ cm/s)": 2.71
  },
  {
    "Compound": "COc1ccc(Cl)cc1S(=O)(=O)N1CCOc2c1cc(C(=O)Nc1ccc(C(=O)O)cc1)cc2C(F)(F)F",
    "Papp (×10⁻⁶ cm/s)": 2.65
  },
  {
    "Compound": "COc1ccc(Cl)cc1S(=O)(=O)N1CC(C(=O)O)Oc2ccc(C(=O)Nc3cccc(F)c3)cc21 (centres undefined)",
    "Papp (×10⁻⁶ cm/s)": 0.14
  },
  {
    "Compound": "CC(=O)NCc1cccc(-c2n[nH]c([C@H]3CCCCN3C(=O)COc3ccccc3)n2)c1",
    "Papp (×10⁻⁶ cm/s)": 4.04
  },
  {
    "Compound": "O=C([C@H]1CCCCN1C(=O)COc1ccccc1)N1Cc2ccc(C3CCOCC3)cc2C1",
    "Papp (×10⁻⁶ cm/s)": 4.45
  }
]

We now examine a further compound.
Please give the measured Papp for this compound: CN(C)C(=O)c1ccc(-c2noc(C3C4CC4CN3C(=O)COc3ccccc3)n2)cc1 (centres undefined)
4.37

###

Molecular target: Carnitine O-palmitoyltransferase 1, liver isoform (Rattus norvegicus, UniProt P32198)
Sequence (P32198 whole entry, canonical isoform): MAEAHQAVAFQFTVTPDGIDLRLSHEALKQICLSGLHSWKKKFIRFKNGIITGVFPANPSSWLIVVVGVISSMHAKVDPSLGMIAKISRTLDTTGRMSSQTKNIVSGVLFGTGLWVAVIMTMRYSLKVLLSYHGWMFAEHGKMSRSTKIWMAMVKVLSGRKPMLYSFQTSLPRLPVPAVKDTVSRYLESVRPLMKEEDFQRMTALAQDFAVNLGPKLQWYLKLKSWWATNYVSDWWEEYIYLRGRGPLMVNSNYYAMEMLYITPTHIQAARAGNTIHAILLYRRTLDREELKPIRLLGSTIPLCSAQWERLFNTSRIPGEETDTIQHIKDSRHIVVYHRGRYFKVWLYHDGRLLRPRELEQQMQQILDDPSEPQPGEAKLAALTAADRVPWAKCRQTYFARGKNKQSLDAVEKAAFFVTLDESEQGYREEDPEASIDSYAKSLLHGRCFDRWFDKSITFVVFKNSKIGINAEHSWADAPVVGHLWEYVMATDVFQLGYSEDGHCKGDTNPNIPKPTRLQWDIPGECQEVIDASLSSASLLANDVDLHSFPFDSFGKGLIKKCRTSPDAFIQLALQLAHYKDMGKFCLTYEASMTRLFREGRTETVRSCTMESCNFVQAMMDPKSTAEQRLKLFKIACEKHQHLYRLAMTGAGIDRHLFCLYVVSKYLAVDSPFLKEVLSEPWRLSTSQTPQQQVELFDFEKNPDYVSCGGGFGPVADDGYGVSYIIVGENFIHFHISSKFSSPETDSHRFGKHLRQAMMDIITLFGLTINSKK
Test: SUPPLEMENTARY: Inhibition of Carnitine palmitoyltransferase 1, liver isoform
Classify: criterion met when IC50 is strictly less than 0.2 µM; criterion not met when IC50 is not.

[
  {
    "Molecular String": "CC(=O)Nc1ccc(-n2nnc([C@H]3CCCCN3C(=O)COc3ccccc3)n2)cc1",
    "System": "Carnitine O-palmitoyltransferase 1, liver isoform (Rattus norvegicus, UniProt P32198)",
    "Assigned Label": "criterion not met"
  },
  {
    "Molecular String": "Nc1ccc(-c2noc([C@H]3CCCCN3C(=O)COc3ccccc3)n2)cn1",
    "System": "Carnitine O-palmitoyltransferase 1, liver isoform (Rattus norvegicus, UniProt P32198)",
    "Assigned Label": "criterion not met"
  },
  {
    "Molecular String": "CC(=O)NCc1cccc(-c2n[nH]c([C@H]3CCCCN3C(=O)COc3ccccc3)n2)c1",
    "System": "Carnitine O-palmitoyltransferase 1, liver isoform (Rattus norvegicus, UniProt P32198)",
    "Assigned Label": "criterion not met"
  },
  {
    "Molecular String": "COc1ccc(Cl)cc1S(=O)(=O)c1nn(C)c2ccc(C(=O)Nc3ccc(CC(=O)O)cc3)cc12",
    "System": "Carnitine O-palmitoyltransferase 1, liver isoform (Rattus norvegicus, UniProt P32198)",
    "Assigned Label": "criterion met"
  }
]

Here is another molecule to look at.
Please determine if O=C(O)c1ccc(NC(=O)c2cccc(S(=O)(=O)N3CCCc4ccc(C(F)(F)F)cc43)c2)cc1 is below 0.2 µM in terms of IC50.
criterion met
